These data points were gathered from patent US20210380675A1.

- tested.on: T1, cynomolgus IL-36γ, truncated (cynomolgus macaque (Macaca fascicularis), UniProt Q9NZH8 18-167 (human entry), limits assumed)
- T1 construct: Untagged after removal of the His-SUMO tag; also called cynomolgus IL-36 gamma; cyIL-36gamma
- T1 chain: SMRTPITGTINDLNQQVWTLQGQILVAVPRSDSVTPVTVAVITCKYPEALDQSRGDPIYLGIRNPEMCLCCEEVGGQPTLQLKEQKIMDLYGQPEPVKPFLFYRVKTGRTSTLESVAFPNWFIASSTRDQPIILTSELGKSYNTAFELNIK
- assay.explanation: SPR, Biacore, 1:1 Langmuir fit
For each of the binders below, state its pKd.
A value of pKd is the negative decimal logarithm of a concentration given in moles per litre.

INPUT: Suppose we examine the binder 144L249B LV7a HV11 (antibody, V domains shown, Humanized) VH: QVQLVQSGAEVKKPGASVKVSCKASGFNIKDTYIYWVRQAPGQGLEWIGRIDPAIGTTRYDPKFQGKATLTTDTSTNTAYLELSSLRSEDTAVYYCARYDYSGSSFYFDYWGQGTLVTVSS VL: QAVVTQEPSLTVSPGGTVTLTCRSSTGAVTTSNYANWVQQKPGQAFTGLIGGTNDRAPGVPARFSGSLLGGKAALTISGAQPEDEADYFCALWYSNHLVFGGGTKLTVL ; what pKd value has been reported?
OUTPUT: 9.04

INPUT: And then 144D464A LV10re HV10b (antibody, V domains shown, Humanized) VH: QVQLVQSGAEVKKPGASVKVSCKASGFNIKDTYIHWVRQAPGQGLEWIGRIDPAIGTTRYDPKFQGRATITTDTSTSTVYLEFSSLRSEDTAVYYCARLHYFGNNFFFDYWGQGTLVTVSS VL: QAVVTQEPSLTVSPGGTVTLTCRSSSGAVTTSNYANWVQEKPGQLFAGLIGGTNDRAPGVPARFSGSLLGGKAALTLSGAQPEDEAIYFCALWFSNHWVFGGGTKLTVL , what is it?
OUTPUT: 8.99
